Below: a set of entries, each annotated with reported EC50 (antiviral activity, TZM-bl cells, luciferase).
# system name: gp120 of viral strain MP568 (CRF02) (HIV, strain MP568 (CRF02))
# test name: cell-based or functional assay
[ ]: non-standard residue; d: D form. Bip = N[C@@H](Cc1ccc(-c2ccccc2)cc1)C(=O)O; Tpa = thiopropionic acid
Write the answer as a number in nM, unit excluded.

[
  {
    "binder": "Tpa-NLHKCQLRCSSLGLLGRCAGS[Bip]CACV-NH2 (disulfide (positions not given here); also: three disulphide bridges, pairing not given here) [mCD4.1]",
    "units label": "nM",
    "experimental value": 7930
  },
  {
    "binder": "mCD4.2-PS1 (not fully specified; N-terminal gamma-aminobutyric acid (gammaAbu) acylated with 3-thiopropionyl (from SATP); all six Tyr are sulfotyrosine (YSO3); N-terminal Tpa; D-proline at position 21; U1 (4-cyclohexylmethoxy-L-phenylalanine) at position 23; C-terminal amide; Lys5 N-epsilon carries the PEO2-maleimide linker bound to the thiol of the PS1 chain) peptide 1: NLHKCQLRCSSLGLLGRCAPTFCACV peptide 2: SYDYSYDYSYDYS",
    "units label": "nM",
    "experimental value": 4.9
  }
]

Query binder follows.
Task item: Fill in the blank: the reported EC50 (antiviral activity, TZM-bl cells, luciferase) of M48U1-PS1 (not fully specified; N-terminal gamma-aminobutyric acid (gammaAbu) acylated with 3-thiopropionyl (from SATP); all six Tyr are sulfotyrosine (YSO3); N-terminal Tpa; D-proline at position 21; U1 (4-cyclohexylmethoxy-L-phenylalanine) at position 23; C-terminal amide; Lys11 N-epsilon carries the PEO2-maleimide linker bound to the thiol of the PS1 chain) peptide 1: NLHFCQLRCKSLGLLGRCAPTFCACV peptide 2: SYDYSYDYSYDYS is ____.
Reply: 15

Data provenance: patent US20170326246A1
